Recorded inhibition at 10 µM for the following molecules
target: FAAH (Mus musculus); construct: Proteomes (mouse brain membrane fraction or cell lysates); from tissue; host or cells: mouse brain membrane fraction (or cell lysates, not specified); experiment: In vitro competitive activity-based protein profiling (gel-based, FP-Rh or HT-01 probe); assay type: biochemical; settings: 10 μM inhibitor; read-out: % Inhibition at 10 μM, B = FAAH
Sequence (O08914 whole entry): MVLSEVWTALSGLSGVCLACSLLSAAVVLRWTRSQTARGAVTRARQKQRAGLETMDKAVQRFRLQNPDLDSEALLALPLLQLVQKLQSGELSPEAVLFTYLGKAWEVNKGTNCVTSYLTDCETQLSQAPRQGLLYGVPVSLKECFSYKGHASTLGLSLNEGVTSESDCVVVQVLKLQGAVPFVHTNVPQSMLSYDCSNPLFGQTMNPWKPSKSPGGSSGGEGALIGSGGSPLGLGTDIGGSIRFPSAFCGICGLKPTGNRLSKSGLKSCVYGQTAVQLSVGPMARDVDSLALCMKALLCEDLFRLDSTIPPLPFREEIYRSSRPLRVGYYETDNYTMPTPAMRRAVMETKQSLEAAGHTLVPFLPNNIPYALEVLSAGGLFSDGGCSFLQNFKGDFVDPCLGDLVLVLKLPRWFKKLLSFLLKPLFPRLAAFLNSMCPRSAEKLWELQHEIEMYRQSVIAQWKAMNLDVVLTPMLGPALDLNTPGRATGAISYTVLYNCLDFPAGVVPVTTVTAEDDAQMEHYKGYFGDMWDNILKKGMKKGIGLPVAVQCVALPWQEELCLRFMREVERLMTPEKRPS

Some molecules with known inhibition at 10 µM results, for comparison:
Molecule: O=C(N1CCN(Cc2ccncc2)CC1)n1cc(-c2ccccc2)cn1 [Example 59]
Observed: > 75%

Molecule: CC(=O)N1CCCN(C(=O)n2cc(Cl)cn2)CC1 [Example 188]
Observed: < 25%

Molecule: N#Cc1cnn(C(=O)N2CCN(Cc3ccccc3)CC2)c1 [Example 9]
Observed: > 75%

Molecule: CS(=O)(=O)N1CCCN(C(=O)n2cc(C#N)cn2)CC1 [Example 178]
Observed: > 75%

Molecule: O=C(N1CCN(Cc2nccs2)CC1)n1cc(-c2ccccc2)cn1 [Example 63]
Observed: > 75%

Molecule: CC(=O)N(C)CCN(C)C(=O)n1cc(C)cn1 [Example 170]
Observed: < 25%

# input Please report the recorded inhibition at 10 µM for O=C(N1CCN(Cc2ccccc2)CC1)n1cccn1 [Example 7] .
# output > 75%

# input Entry to check: O=C(N1CCN(Cc2ccc(-c3ccccc3)cc2OCc2ccccc2)CC1)n1cc(Cl)cn1 [Example 148]
# output > 75%

# input Entry to check: O=C(N1CCCC1)n1cc(C(F)(F)F)cn1 [Example 199]
# output > 75%

# input Entry to check: N#Cc1cnn(C(=O)N2CCN(Cc3ccc(-c4ccccc4)cc3OCc3ccccc3)CC2)c1 [Example 146]
# output > 75%

# input Entry to check: COc1cc(-c2ccccc2)ccc1CN1CCN(C(=O)n2cc(C(F)(F)F)cn2)CC1 [Example 144]
# output > 75%

# input Entry to check: O=C(N1CCN(Cc2ccc3ccccc3c2)CC1)n1cc(Br)cn1 [Example 13]
# output > 75%

# input Entry to check: O=C(NCCCCCc1ccccc1)n1cccn1 [Example 37]
# output < 25%

# input Entry to check: N#Cc1cnn(C(=O)Nc2ccc3ccccc3c2)c1 [Example 42]
# output < 25%

# input Entry to check: O=C(c1cnn(C(=O)N2CCN(C(c3ccc(Cl)cc3)c3ccc(Cl)cc3)CC2)c1)N1CCCCC1 [Example 66]
# output 25 to 75%

# input Entry to check: Cc1cc(-c2ccccc2)ccc1CN1CCN(C(=O)n2cc(C(=O)N3CCOCC3)cn2)CC1 [Example 57]
# output > 75%
